Target: PIK3C2B (human) (UniProt O00750)
Sequence (O00750 whole entry, looked up): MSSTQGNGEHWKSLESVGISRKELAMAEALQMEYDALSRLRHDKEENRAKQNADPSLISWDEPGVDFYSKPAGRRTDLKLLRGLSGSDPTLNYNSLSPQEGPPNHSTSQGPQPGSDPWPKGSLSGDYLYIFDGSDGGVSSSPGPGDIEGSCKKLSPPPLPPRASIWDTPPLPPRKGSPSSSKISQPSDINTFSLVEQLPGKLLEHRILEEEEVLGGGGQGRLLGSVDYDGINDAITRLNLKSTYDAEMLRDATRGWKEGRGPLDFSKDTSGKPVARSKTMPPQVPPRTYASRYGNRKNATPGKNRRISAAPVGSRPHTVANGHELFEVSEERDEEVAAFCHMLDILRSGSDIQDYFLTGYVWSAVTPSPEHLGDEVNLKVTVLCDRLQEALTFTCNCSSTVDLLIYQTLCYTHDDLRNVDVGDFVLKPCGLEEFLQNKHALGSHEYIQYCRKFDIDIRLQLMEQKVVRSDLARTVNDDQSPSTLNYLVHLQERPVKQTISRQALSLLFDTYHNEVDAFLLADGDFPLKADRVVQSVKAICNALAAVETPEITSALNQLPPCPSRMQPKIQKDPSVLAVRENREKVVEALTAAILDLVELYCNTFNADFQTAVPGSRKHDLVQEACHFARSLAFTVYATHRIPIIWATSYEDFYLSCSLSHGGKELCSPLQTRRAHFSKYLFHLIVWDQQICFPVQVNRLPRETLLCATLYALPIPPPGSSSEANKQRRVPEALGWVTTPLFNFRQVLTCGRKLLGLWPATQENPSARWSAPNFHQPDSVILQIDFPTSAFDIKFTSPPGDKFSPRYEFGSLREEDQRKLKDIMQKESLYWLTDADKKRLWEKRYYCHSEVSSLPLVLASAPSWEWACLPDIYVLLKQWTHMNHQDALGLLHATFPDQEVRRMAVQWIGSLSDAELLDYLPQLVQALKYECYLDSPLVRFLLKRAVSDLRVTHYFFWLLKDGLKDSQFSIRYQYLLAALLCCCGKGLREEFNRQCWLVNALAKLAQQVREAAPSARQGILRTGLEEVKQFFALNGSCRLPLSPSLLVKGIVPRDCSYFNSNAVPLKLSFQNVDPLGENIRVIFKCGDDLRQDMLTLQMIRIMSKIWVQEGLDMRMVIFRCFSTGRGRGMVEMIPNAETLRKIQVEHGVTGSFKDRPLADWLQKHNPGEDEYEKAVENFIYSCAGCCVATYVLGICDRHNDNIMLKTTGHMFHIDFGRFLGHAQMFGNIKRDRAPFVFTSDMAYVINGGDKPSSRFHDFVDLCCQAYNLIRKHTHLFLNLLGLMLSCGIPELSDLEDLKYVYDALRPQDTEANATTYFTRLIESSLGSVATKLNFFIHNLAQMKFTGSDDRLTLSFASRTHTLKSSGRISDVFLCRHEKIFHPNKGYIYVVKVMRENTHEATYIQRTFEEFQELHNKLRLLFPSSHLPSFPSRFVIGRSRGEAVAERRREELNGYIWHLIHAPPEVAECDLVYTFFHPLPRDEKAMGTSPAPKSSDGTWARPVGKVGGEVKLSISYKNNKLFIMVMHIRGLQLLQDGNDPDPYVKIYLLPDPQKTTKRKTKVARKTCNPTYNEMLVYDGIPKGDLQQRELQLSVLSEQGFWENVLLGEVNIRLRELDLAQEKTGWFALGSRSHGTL
Test: KINOMEscan competition binding
Conditions: compound 10.0 µM
# kinase still bound, per cent of control listing for each entry below
The answer is to be given in %; state only the numeric part.

# example entries with known answers
* COc1cc2ncn(-c3cc(OCc4ccccc4C(F)(F)F)c(C(N)=O)s3)c2cc1OC | 63
* CNC(=O)c1cc(Oc2ccc(NC(=O)Nc3ccc(Cl)c(C(F)(F)F)c3)cc2)ccn1 | 92
* N#CCNC(=O)c1ccc(-c2ccnc(Nc3ccc(N4CCOCC4)cc3)n2)cc1 | 56
* COc1cc(C(=O)N2CCC(N3CCN(C)CC3)CC2)ccc1Nc1ncc2c(n1)N(C)c1ccccc1C(=O)N2C | 100
* CCN(CC)CCCCNc1ncc2c(n1)N(C)C(=O)N(c1c(Cl)c(OC)cc(OC)c1Cl)C2 | 100
* Cc1n[nH]c2ccc(-c3cncc(OC[C@@H](N)Cc4c[nH]c5ccccc45)c3)cc12 | 100

# evaluate next
So what's the measured kinase still bound, per cent of control for this one? "CNC(=O)c1ccc(Nc2cc(Nc3ccccc3S(=O)(=O)C(C)C)c3cc[nH]c3n2)nc1"
100

* * *

Examples of compounds with documented kinase still bound, per cent of control follow.
Target: UniProt:P54760
Sequence (P54760 whole entry, looked up): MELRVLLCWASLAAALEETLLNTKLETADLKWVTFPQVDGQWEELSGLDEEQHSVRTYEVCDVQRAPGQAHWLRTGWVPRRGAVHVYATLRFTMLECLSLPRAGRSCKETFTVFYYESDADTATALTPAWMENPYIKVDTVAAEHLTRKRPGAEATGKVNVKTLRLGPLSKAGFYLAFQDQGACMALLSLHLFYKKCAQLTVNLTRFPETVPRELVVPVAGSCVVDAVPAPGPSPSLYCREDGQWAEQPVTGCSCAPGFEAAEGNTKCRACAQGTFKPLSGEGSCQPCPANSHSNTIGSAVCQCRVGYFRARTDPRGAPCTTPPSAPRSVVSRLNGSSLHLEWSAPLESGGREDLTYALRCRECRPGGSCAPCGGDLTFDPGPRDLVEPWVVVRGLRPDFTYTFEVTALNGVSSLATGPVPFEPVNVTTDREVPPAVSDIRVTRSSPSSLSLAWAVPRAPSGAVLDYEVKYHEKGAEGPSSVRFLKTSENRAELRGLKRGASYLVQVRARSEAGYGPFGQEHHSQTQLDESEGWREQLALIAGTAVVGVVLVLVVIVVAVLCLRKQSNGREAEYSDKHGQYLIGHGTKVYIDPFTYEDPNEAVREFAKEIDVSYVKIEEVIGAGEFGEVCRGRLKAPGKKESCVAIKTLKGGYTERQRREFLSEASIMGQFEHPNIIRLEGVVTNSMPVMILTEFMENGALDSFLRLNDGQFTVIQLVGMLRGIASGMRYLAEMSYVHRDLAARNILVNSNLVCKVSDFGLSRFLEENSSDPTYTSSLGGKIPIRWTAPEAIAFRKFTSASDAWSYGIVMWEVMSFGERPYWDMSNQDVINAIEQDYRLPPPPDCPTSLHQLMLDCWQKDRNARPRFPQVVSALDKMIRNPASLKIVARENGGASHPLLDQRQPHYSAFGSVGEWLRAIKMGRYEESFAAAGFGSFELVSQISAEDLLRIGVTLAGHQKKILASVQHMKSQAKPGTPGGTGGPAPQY
Experiment: KINOMEscan competition binding
Conditions: compound 10.0 µM

Observe how each entry below is paired with its result.
- COCC(=O)NC/C=C/c1ccc2ncnc(Nc3ccc(Oc4ccc(C)nc4)c(C)c3)c2c1: 95%
- C[C@@H](Oc1cc(-c2cnn(C3CCNCC3)c2)cnc1N)c1c(Cl)ccc(F)c1Cl: 4.8%
- C=CC(=O)Nc1ccc(CN(C(=O)Nc2c(Cl)c(OC)cc(OC)c2Cl)c2cc(Nc3ccc(N4CCN(C)CC4)cc3)ncn2)cc1: 100%

Any idea what kinase still bound, per cent of control was measured for "O=C(Nc1cccc(Nc2ncc(Br)c(NCCc3cnc[nH]3)n2)c1)N1CCCC1" ?
78%

Any idea what its kinase still bound, per cent of control is? The compound is "CCN(CC)CCCCNc1ncc2c(n1)N(C)C(=O)N(c1c(Cl)c(OC)cc(OC)c1Cl)C2"
100%

* * *

Target: RPS6KA2 KD2 (human) (UniProt Q15349)
Sequence (Q15349 whole entry, looked up): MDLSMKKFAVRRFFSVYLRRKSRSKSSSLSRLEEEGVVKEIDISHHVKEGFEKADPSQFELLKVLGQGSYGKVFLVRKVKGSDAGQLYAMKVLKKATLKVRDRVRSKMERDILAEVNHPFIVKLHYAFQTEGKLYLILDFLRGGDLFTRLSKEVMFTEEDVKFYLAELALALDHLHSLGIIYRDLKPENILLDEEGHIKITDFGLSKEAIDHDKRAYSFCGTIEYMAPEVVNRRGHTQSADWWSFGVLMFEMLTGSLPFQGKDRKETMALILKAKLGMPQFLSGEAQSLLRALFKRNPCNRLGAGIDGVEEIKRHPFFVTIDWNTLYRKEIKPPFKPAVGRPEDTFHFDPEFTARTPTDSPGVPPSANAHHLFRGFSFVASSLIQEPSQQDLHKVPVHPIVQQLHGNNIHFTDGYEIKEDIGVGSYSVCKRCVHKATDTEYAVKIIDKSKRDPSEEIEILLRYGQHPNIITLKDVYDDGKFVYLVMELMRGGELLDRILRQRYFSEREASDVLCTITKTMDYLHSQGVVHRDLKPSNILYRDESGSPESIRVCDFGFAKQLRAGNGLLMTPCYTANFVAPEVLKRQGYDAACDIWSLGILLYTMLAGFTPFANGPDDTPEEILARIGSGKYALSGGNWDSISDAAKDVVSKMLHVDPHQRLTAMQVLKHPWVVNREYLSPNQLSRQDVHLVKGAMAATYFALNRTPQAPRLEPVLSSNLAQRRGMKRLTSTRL
Assay: KINOMEscan competition binding
Settings: compound 10.0 µM
observable: kinase still bound, per cent of control (%)
Output spec: scalar in %, unitless text.

Here are 2 compounds together with their reported answers.
* Cc1n[nH]c2ccc(-c3cncc(OC[C@@H](N)Cc4c[nH]c5ccccc45)c3)cc12 | 100
* O=c1cc(N2CCOCC2)oc2c(-c3cccc4c3sc3ccccc34)cccc12 | 83

Next item in the queue.
What value of kinase still bound, per cent of control has been reported for the following compound? "CCN1CCN(C(=O)Cc2ccc(Nc3ncc(F)c(Nc4ccc(C(=O)Nc5ccccc5Cl)cc4)n3)cc2)CC1"
57

* * *

Entries and their measured kinase still bound, per cent of control follow.
Target: UniProt Q59H18
Sequence (Q59H18 whole entry, looked up): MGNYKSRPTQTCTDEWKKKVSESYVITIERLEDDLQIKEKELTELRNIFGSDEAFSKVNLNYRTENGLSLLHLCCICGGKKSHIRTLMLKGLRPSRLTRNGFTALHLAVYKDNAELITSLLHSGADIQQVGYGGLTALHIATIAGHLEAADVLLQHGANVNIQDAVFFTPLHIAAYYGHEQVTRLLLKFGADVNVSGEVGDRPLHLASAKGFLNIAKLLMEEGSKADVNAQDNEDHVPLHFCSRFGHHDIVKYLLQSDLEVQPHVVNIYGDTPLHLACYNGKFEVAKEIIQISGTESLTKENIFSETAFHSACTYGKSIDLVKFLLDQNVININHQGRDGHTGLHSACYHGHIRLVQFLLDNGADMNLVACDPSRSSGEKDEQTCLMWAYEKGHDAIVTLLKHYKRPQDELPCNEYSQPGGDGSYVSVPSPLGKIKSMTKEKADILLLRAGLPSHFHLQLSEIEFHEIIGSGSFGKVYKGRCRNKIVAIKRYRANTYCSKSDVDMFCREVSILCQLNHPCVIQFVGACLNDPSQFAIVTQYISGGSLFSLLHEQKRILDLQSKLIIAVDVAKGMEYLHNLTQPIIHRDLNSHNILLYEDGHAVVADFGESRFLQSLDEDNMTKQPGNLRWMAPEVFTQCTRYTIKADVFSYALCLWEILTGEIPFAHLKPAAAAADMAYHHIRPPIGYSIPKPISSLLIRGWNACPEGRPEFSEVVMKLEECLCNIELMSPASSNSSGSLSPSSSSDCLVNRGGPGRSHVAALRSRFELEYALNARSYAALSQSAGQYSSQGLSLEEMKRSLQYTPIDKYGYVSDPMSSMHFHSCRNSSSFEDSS
Experiment: KINOMEscan competition binding
Conditions: compound 10.0 µM
State just the number; it will be interpreted in %.

Solved entries:
- COCC(=O)NC/C=C/c1ccc2ncnc(Nc3ccc(Oc4ccc(C)nc4)c(C)c3)c2c1: 100
- CNC(=O)c1cc(Oc2ccc(NC(=O)Nc3ccc(Cl)c(C(F)(F)F)c3)cc2)ccn1: 19

Could you share which kinase still bound, per cent of control value was measured for "COc1cc(N2CCN(C)CC2)ccc1Nc1ncc2c(n1)N(C)c1ccccc1C(=O)N2C" ?
100

Look up kinase still bound, per cent of control: "CNC(=O)c1ccc(Nc2cc(Nc3ccccc3S(=O)(=O)C(C)C)c3cc[nH]c3n2)nc1"
100

Name the reported kinase still bound, per cent of control value associated with the compound "O=C(Nc1cccc(Nc2ncc(Br)c(NCCc3cnc[nH]3)n2)c1)N1CCCC1"
28

# lookup: kinase still bound, per cent of control of "CCN1CCN(C(=O)Cc2ccc(Nc3ncc(F)c(Nc4ccc(C(=O)Nc5ccccc5Cl)cc4)n3)cc2)CC1"
24

Fill blank: measured kinase still bound, per cent of control of the compound "Cc1n[nH]c2ccc(-c3cncc(OC[C@@H](N)Cc4c[nH]c5ccccc45)c3)cc12" is ____.
100
